- TGT: human Gal-1 (hGal-1) (Homo sapiens, UniProt P09382)
- Sequence (P09382 2-135 limits assumed): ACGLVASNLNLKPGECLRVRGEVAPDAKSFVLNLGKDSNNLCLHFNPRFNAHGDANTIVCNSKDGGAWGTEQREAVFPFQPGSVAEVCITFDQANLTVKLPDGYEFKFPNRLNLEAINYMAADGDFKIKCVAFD
ATTRIBUTE_MEASURED: IC50 (nM)

> print(dat)
                              smiles.string  attribute.measured  assay.result
1  CC(C)(C)OC(=O)N1CCC(c2cc(C[C@H]3O[C@H](CO)[C@H](O)[C@H](n4cc(-c5cc(F)c(F)c(F)c5)nn4)[C@H]3OCC(F)F)no2)CC1                IC50          1280

----------
- TGT: human Gal-1 (hGal-1)
- ASSAY_EXPLANATION: Competitive binding assay: binding of biotinylated hGal-1 to microplate-adsorbed asialofetuin (ASF)
- CONDITION_DESCRIPTION: Activities on hGal-1; mean values of several measurements
Entries annotated with measured IC50
ATTRIBUTE_MEASURED: IC50

> print(dat)
                                   molecule  attribute.measured  assay.result
1  CO[C@@H]1[C@@H](n2cc(-c3cc(F)c(F)c(F)c3)nn2)[C@@H](O)[C@@H](CO)O[C@@H]1C[C@H]1CC(c2cc[nH]c(=O)c2)=NO1 [Example 2.07b]                IC50      11700 nM
2  CO[C@@H]1[C@@H](n2cc(-c3ccc(C)c(F)c3F)nn2)[C@@H](O)[C@@H](CO)O[C@@H]1Cc1cc(C2(O)CCC2)on1                IC50       2580 nM
3  CNC(=O)CO[C@@H]1[C@@H](n2cc(-c3cc(F)c(F)c(F)c3)nn2)[C@@H](O)[C@@H](CO)O[C@@H]1Cc1cc(C(C)(C)C)on1                IC50       1990 nM

----------
- TGT: human Gal-3 (hGal-3) (Homo sapiens (Human), UniProt P17931)
- Sequence (P17931 whole entry): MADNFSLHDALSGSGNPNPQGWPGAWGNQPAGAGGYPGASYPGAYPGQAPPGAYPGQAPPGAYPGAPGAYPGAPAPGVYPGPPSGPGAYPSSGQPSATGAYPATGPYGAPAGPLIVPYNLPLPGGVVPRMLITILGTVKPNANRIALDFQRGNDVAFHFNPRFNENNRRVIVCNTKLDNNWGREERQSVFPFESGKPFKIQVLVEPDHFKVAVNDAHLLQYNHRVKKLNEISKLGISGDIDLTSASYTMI
pIC50: −log10 of the molar value.
Decision: pIC50 >= 7 yields Met, all other cases yield Not met.

COMPOUND	CLASS
CO[C@@H]1[C@@H](n2cc(-c3cc(F)c(F)c(F)c3)nn2)[C@@H](O)[C@@H](CO)O[C@@H]1CC1CC(C(C)(C)C)=NO1 (stereo partly drawn)	Not met
OC[C@H]1O[C@H](Cc2cc(C3(O)COC3)on2)[C@H](O)[C@@H](n2cc(-c3cc(F)c(F)c(F)c3)nn2)[C@H]1O	Not met
CO[C@@H]1[C@@H](n2cc(-c3ccc(F)c(F)c3F)nn2)[C@@H](O)[C@@H](CO)O[C@@H]1Cc1cc(C(C)(C)CO)no1	Met
CO[C@@H]1[C@@H](n2cc(-c3cc(F)c(F)c(F)c3)nn2)[C@@H](O)[C@@H](CO)O[C@@H]1C[C@H]1CC(c2ccc3[nH]c(=O)oc3c2)=NO1	Not met
CO[C@@H]1[C@@H](n2cc(-c3ccc(Cl)c(F)c3)nn2)[C@@H](O)[C@@H](CO)O[C@@H]1Cc1cc(C(C)(C)C)on1	Not met
CO[C@@H]1[C@@H](n2cc(-c3ccc(Br)c(F)c3)nn2)[C@@H](O)[C@@H](CO)O[C@@H]1Cc1cn(C2CCN(C(=O)OCc3ccccc3)CC2)nn1	Met
CO[C@@H]1[C@@H](n2cc(-c3cc(F)c(F)c(F)c3)nn2)[C@@H](O)[C@@H](CO)O[C@@H]1CC1=NOC(C2CCN(C(=O)OC(C)(C)C)CC2)C1 (stereo partly drawn)	Not met
CO[C@@H]1[C@@H](n2cc(-c3cc(F)c(F)c(F)c3)nn2)[C@@H](O)[C@@H](CO)O[C@@H]1Cn1cc(C2(O)CCCCC2)nn1	Not met
CO[C@@H]1[C@@H](n2cc(-c3cc(F)c(F)c(F)c3)nn2)[C@@H](O)[C@@H](CO)O[C@@H]1CN1CC(=O)N(C2CCCCC2)C1	Met
